SETUP CONDITIONS: in 1,2-dichloroethane, 303.15 K
MEASURED METRIC: solubility (mole fraction)

• O=[N+]([O-])c1cc([N+](=O)[O-])c(Cl)c(Cl)c1Cl = 0.155

----------
SETUP CONDITIONS: in DMF, 283.15 K
MEASURED METRIC: solubility (mole fraction)

* O=[N+]([O-])c1cc([N+](=O)[O-])c(Cl)c(Cl)c1Cl | 0.211

----------
SETUP CONDITIONS: in toluene, 323.15 K
MEASURED METRIC: solubility (mole fraction)

• O=[N+]([O-])c1cc([N+](=O)[O-])c(Cl)c(Cl)c1Cl = 0.4

----------
SETUP CONDITIONS: in ethanol, 308.15 K
MEASURED METRIC: solubility (mole fraction)

• O=[N+]([O-])c1cc([N+](=O)[O-])c(Cl)c(Cl)c1Cl = 0.00957

----------
SETUP CONDITIONS: in acetone, 288.15 K
MEASURED METRIC: solubility (mole fraction)

• O=[N+]([O-])c1cc([N+](=O)[O-])c(Cl)c(Cl)c1Cl = 0.141

----------
SETUP CONDITIONS: in methanol, 313.15 K
MEASURED METRIC: solubility (mole fraction)

- O=[N+]([O-])c1cc([N+](=O)[O-])c(Cl)c(Cl)c1Cl: 0.0121

----------
SETUP CONDITIONS: in acetone, 323.15 K
MEASURED METRIC: solubility (mole fraction)

* O=[N+]([O-])c1cc([N+](=O)[O-])c(Cl)c(Cl)c1Cl | 0.323

----------
SETUP CONDITIONS: in ethyl acetate, 318.15 K
MEASURED METRIC: solubility (mole fraction)

* O=[N+]([O-])c1cc([N+](=O)[O-])c(Cl)c(Cl)c1Cl | 0.279

----------
SETUP CONDITIONS: in ethanol, 278.15 K
MEASURED METRIC: solubility (mole fraction)

* O=[N+]([O-])c1cc([N+](=O)[O-])c(Cl)c(Cl)c1Cl | 0.00235

----------
SETUP CONDITIONS: in tetrachloromethane, 303.15 K
MEASURED METRIC: solubility (mole fraction)

- O=[N+]([O-])c1cc([N+](=O)[O-])c(Cl)c(Cl)c1Cl: 0.0296

----------
SETUP CONDITIONS: in toluene, 308.15 K
MEASURED METRIC: solubility (mole fraction)

• O=[N+]([O-])c1cc([N+](=O)[O-])c(Cl)c(Cl)c1Cl = 0.289

----------
SETUP CONDITIONS: in ethanol, 288.15 K
MEASURED METRIC: solubility (mole fraction)

• O=[N+]([O-])c1cc([N+](=O)[O-])c(Cl)c(Cl)c1Cl = 0.00382

----------
SETUP CONDITIONS: in NMP, 308.15 K
MEASURED METRIC: solubility (mole fraction)

• O=[N+]([O-])c1cc([N+](=O)[O-])c(Cl)c(Cl)c1Cl = 0.377

----------
SETUP CONDITIONS: in DMSO, 313.15 K
MEASURED METRIC: solubility (mole fraction)

• O=[N+]([O-])c1cc([N+](=O)[O-])c(Cl)c(Cl)c1Cl = 0.345
